experiment: inhibition of 3D7 malaria parasite growth – strain 3D7 (AID 2306);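 note: 0% = DMSO wells and 100% = chloroquine plus artemisinin control wells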; settings: P. falciparum 3D7 erythrocytic growth, LDH absorbance, 72 h; at 2 µM; stronger effect = higher value
Quick list: growth inhibition per entry.
Field: numeric (%). Do not append units.

CC(ON1C(N)=NC(N)=NC1(C)C)c1ccccc1 (centres undefined); 96
COc1cc(CNC(=S)NN=C(C)c2ccccn2)cc(OC)c1OC; 99

Okay, next one:
Data request, read-out growth inhibition, for `Cc1cc(Nc2cccc(C(F)(F)F)c2)nc(N)n1` 98

* * *

experiment: human hepatoma cell viability loss – ATP luminescence, cytotoxicity control for P. falciparum antimalarial project, primary screen (AID 2303); conditions: HepG2 viability, 24-48 h, at 10 µM;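 note: 0% = DMSO wells and 100% = digitonin-killed cells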
Calls of active or inactive are those of the source.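 Rule for the calls: active = inhibition above 50%; inactive = the rest.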
// one of active, inactive, no free text

As a guide, the following entries are already answered.
O=C1OC(c2ccccc2)(c2ccccc2)CN1CC1CCN(Cc2ccc(O)c(Cl)c2)CC1; inactive
COc1ccc(-c2ccc(NC(=O)c3cccc(Cl)c3)cc2)cc1CN(C)CCO; inactive

Now for another entry.
Dear colleague, could you share the recorded outcome for `O=C1c2ccccc2-n2c1nc1ccccc1c2=O` when you have a moment? inactive
